Examples of compounds with documented Toxicity at 30 mg/kg follow.
- testSummary: In vivo toxicity, visual observations
- conditionParameters: 30 mg/kg, number of days

Look at this compound and give its reported Toxicity at 30 mg/kg. "O=c1c2c(Cl)cc(Cl)c(O)c2ncn1Cc1nc2ccccc2[nH]1" 10 days, none

Look at this compound and give its reported Toxicity at 30 mg/kg. "CCCc1cnc2c(O)c(I)ccn2c1=O" 10 days, none

Look at this compound and give its reported Toxicity at 30 mg/kg. "O=c1c2c(Cl)cc(Cl)c(O)c2ncn1-c1ccc(Cl)cn1" 10 days, none

---

- testSummary: Neurotoxicity assay: MTS viability of primary cortical neuronal cultures
- Assay type: cell-based, mouse
- conditionParameters: BL6Jx129sv, mouse, primary cortical neuronal cultures, Neuronal cells, test compound 10 uM; read-out: Cytotoxicity (% viable at 1 and 10 uM)
Examples of compounds with documented viability at 4 days, 10 uM follow.
Write the number in % without appending the unit.

Below are worked cases with known answers.
COc1ccccc1-c1cc(-c2ccccc2OC)c2cccnc2c1O: 52
CO/N=C/c1ccc2c(Cl)cc(Cl)c(O)c2n1: 54
Cc1cc(C)c2cccnc2c1O: 85
O=c1c2c(Cl)cc(Cl)c(O)c2ncn1CC1CC1: 105
O/N=C/c1ccc2cccc(O)c2n1: 95

Look at this compound and give its reported viability at 4 days, 10 uM. "CC(=O)Nc1ccc2cccc(O)c2n1" 89

Look at this compound and give its reported viability at 4 days, 10 uM. "O=C(O)CNC(=O)c1cc(O)c2cccc(O)c2n1" 94
